- assay_target: Hmlalpha2 (UniProt P0CY09)
- Sequence: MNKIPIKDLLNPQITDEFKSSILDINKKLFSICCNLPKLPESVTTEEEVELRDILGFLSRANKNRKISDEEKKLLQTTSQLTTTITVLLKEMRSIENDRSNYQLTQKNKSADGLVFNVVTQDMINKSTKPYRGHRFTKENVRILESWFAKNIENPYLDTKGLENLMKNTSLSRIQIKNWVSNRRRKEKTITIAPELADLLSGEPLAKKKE
- assay_details: PBM E-score (8-mer binding enrichment) (E-score (-0.5 to 0.5)); higher = stronger / more preferred TF binding
- run_conditions: protein concentration: 200 nM; construct: GST-full length
The full ranking holds about 33,000 sequences; the median of “E-score (-0.5 to 0.5)” is about -0.04, and the highest 2% start at about 0.36. Shown is part of a subset that was picked to be rich in the highest values.
Returns the class for an entry based on its PBM E-score. Class ranges: low (below 0.1), intermediate (0.1 to below 0.3), high (0.3 or more)

The following sequences have reported results that may help.
{"columns": ["entry_sequence", "assay_target", "assigned_category"],
 "data": [
  ["ACCAACAA", "Hmlalpha2 (UniProt P0CY09)", "intermediate"],
  ["AATGTAGT", "Hmlalpha2 (UniProt P0CY09)", "intermediate"],
  ["GACACGGC", "Hmlalpha2 (UniProt P0CY09)", "intermediate"],
  ["AACACGAT", "Hmlalpha2 (UniProt P0CY09)", "high"],
  ["ATGTAGTG", "Hmlalpha2 (UniProt P0CY09)", "high"],
  ["CACGTGTC", "Hmlalpha2 (UniProt P0CY09)", "intermediate"],
  ["ATGTATTA", "Hmlalpha2 (UniProt P0CY09)", "high"],
  ["CGGTGGTA", "Hmlalpha2 (UniProt P0CY09)", "low"]
]}

Prompt: Which class holds "CTTTGTAC" ?
Response: intermediate

###

- assay_target: Hmlalpha2 (UniProt P0CY09)
- Sequence: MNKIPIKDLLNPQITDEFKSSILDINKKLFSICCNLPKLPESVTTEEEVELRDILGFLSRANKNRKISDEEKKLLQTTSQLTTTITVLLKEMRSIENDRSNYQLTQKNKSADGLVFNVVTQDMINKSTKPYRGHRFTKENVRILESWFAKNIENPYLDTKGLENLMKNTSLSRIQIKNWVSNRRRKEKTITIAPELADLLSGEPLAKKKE
- assay_details: PBM E-score (8-mer binding enrichment) (E-score (-0.5 to 0.5)); higher = stronger / more preferred TF binding
- run_conditions: protein concentration: 200 nM; construct: GST-full length
Over roughly 33,000 sequences, “E-score (-0.5 to 0.5)” has its median near -0.04; the highest 2% begin near 0.36. The sample as a whole holds a higher share of the highest values than the screen did.
Tick True if PBM E-score is -0.01 or greater. Tick False if PBM E-score is less than -0.01.

The following sequences have reported results that may help.
{"columns": ["entry_sequence", "assay_target", "assigned_category"],
 "data": [
  ["GGGTAATA", "Hmlalpha2 (UniProt P0CY09)", "True"],
  ["CTGATACC", "Hmlalpha2 (UniProt P0CY09)", "False"],
  ["GCATAGCC", "Hmlalpha2 (UniProt P0CY09)", "False"],
  ["GTGTAATA", "Hmlalpha2 (UniProt P0CY09)", "True"],
  ["ATGTAACG", "Hmlalpha2 (UniProt P0CY09)", "True"]
]}

Prompt: Could you verify whether the entry "TACAACAA" shows PBM E-score of no less than -0.01?
Response: True

Prompt: Could you verify whether the entry "ATAAAGAA" shows PBM E-score of no less than -0.01?
Response: True

Prompt: Could you verify whether the entry "CTGTAATA" shows PBM E-score of no less than -0.01?
Response: True

The values you see were collected from the supplement of paper PMC3334620.
